Tested on: Influenza A virus
protocol notes: Antiviral activity against amantadine-resistant Influenza A virus A/WSN/33(H1N1) expressing M2 S31N mutant ion channel infected in MDCK cells assessed as protection against virus induced cytopathic effect after 48 hrs by microscopic analysis
Format: functional, organism-based, A/WSN/1933(H1N1)
experimental parameters: read-out: IC50
reported endpoint: IC50 (µM)
Form entry: value (µM) — number only.

Answered cases to consult:
{"mol smiles": "CCc1ncc(CN[C@@H]2C[C@@H]3C[C@H]([C@H]2C)C3(C)C)[nH]1", "unit abbrev": "µM", "IC50": 9.5}
{"mol smiles": "Cc1nc(C2CC2)[nH]c1CN[C@@H]1C[C@@H]2C[C@H]([C@H]1C)C2(C)C", "unit abbrev": "µM", "IC50": 9.4}
{"mol smiles": "CCCc1nc(-c2ccccc2)[nH]c1CN[C@@H]1C[C@@H]2C[C@H]([C@H]1C)C2(C)C", "unit abbrev": "µM", "IC50": 12.3}
{"mol smiles": "NC12CC3CC(CC(C3)C1)C2", "unit abbrev": "µM", "IC50": 337}

// query Look at this molecule and give its reported IC50. C[C@@H]1[C@H]2C[C@@H](C[C@H]1NCc1cnc(-c3ccccc3)[nH]1)C2(C)C
// result 9

// query Look at this molecule and give its reported IC50. CCCc1nc[nH]c1CN[C@@H]1C[C@@H]2C[C@H]([C@H]1C)C2(C)C
// result 3.4

// query Look at this molecule and give its reported IC50. CCCc1nc(C(C)C)[nH]c1CN[C@@H]1C[C@@H]2C[C@H]([C@H]1C)C2(C)C
// result 8.8

// query Look at this molecule and give its reported IC50. C[C@@H]1[C@H]2C[C@@H](C[C@H]1NCc1cnc(C3CC3)[nH]1)C2(C)C
// result 29.4

---

Test system: Influenza A virus
protocol notes: Antiviral activity against amantadine-resistant Influenza A virus A/WSN/33(H1N1) expressing M2 S31N mutant ion channel infected in MDCK cells assessed as protection against virus induced cytopathic effect after 48 hrs by microscopic analysis
Type: functional, organism-based, A/WSN/1933(H1N1)
experimental parameters: read-out: IC50
A collection of compounds and their measured pIC50
The read-out pIC50 is expressed as -log10 of concentration in moles per litre.

Answered cases to consult:
{"mol smiles": "Cc1nc[nH]c1CN[C@@H]1C[C@@H]2C[C@H]([C@H]1C)C2(C)C", "test target": "Influenza A virus", "pIC50": 4.02}
{"mol smiles": "C[C@@H]1[C@H]2C[C@@H](C[C@H]1NCc1cnc(C(C)(C)C)[nH]1)C2(C)C", "test target": "Influenza A virus", "pIC50": 5.01}
{"mol smiles": "CC(C)Cc1ncc(CN[C@@H]2C[C@@H]3C[C@H]([C@H]2C)C3(C)C)[nH]1", "test target": "Influenza A virus", "pIC50": 5.05}

Continue with the next compound.
// query Enter reported pIC50 observed with Influenza A virus for CCCc1nc(C2CC2)[nH]c1CN[C@@H]1C[C@@H]2C[C@H]([C@H]1C)C2(C)C
// result 5.14
